Molecular target: Nuclear receptor subfamily 1 group D member 1 (Homo sapiens) (UniProt P20393)
Sequence (P20393 whole entry, looked up): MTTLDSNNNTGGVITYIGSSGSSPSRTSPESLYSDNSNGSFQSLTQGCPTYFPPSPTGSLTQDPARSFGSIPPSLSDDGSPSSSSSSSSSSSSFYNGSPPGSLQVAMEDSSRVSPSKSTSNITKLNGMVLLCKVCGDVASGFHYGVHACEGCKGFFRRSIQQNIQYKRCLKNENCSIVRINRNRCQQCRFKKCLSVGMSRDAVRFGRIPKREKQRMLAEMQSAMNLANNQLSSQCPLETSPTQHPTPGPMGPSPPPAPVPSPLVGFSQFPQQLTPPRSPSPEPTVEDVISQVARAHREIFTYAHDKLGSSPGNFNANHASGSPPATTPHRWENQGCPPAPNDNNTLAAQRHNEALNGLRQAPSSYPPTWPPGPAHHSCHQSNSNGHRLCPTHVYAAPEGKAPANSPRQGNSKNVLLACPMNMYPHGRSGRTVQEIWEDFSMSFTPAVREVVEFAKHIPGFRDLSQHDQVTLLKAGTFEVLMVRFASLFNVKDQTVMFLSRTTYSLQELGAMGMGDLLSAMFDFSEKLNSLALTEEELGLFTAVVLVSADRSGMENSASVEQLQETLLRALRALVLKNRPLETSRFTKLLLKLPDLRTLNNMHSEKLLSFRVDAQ
Test: Rev-erbα–DNA interaction modulation, retest – biochemical, FITC-DNA, fluorescence polarization, single point, confirmation (AID 1259319);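 further: 0% = 35 nM protein with DMSO and 100% = 750 nM protein high control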
Details: Rev-erb alpha FITC-DNA binding, 90 min, at 25 µM, stronger effect = higher value
About 1,800 (60%) of roughly 3,000 compounds were called active. The set was probably picked from earlier hits. The list is a sample of the results.
Categories are defined by ranges of activation, namely low bracket (below 10%), middle bracket (10% to below 30%), high bracket (30% or more)

MOLECULE | CATEGORY_LABEL
Fc1c(F)c(C(F)(F)F)c(F)c(F)c1N1CCN(c2ccc3nnc(C(F)(F)F)n3n2)CC1 | high bracket

Entry `CCOc1cccc(NC(=O)Cn2nc(-c3ccc4c(c3)OCCO4)ccc2=O)c1` belongs to which category? middle bracket

And what about the molecule `COc1ccc(CCNC(=O)CSc2nc(-c3ccc(OC)c(OC)c3)ccc2C#N)cc1` ? high bracket

And what about the molecule `CC(=O)c1ccc(S(=O)(=O)N2CCN(c3nc4c(C)c(C)ccc4cc3C#N)CC2)cc1` ? high bracket

And what about the molecule `COc1ccc(S(=O)(=O)N2CCOCC2)cc1C(=O)Nc1nc2ccccc2s1` ? middle bracket

And what about the molecule `COc1ccc(-c2c(C)cc3oc(=O)cc(-c4ccccc4)c3c2C)cc1C=O` ? low bracket

And what about the molecule `CCOc1cc(-c2cc(-c3ccc(OC)cc3)nc(N)c2C#N)ccc1O` ? middle bracket

And what about the molecule CCCCCn1nnnc1C1c2ccccc2C(=O)N1Cc1ccco1 (configuration not stated) ? low bracket

And what about the molecule `CCOc1cccc(C(=O)Nc2nnc(-c3cccs3)s2)c1` ? low bracket

* * *

Molecular target: Nuclear receptor subfamily 1 group D member 1 (Homo sapiens)
Experiment: Rev-erbα–DNA interaction modulation, retest – biochemical, FITC-DNA, fluorescence polarization, single point, confirmation (AID 1259319);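 further: 0% = 35 nM protein with DMSO and 100% = 750 nM protein high control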
Conditions: Rev-erb alpha FITC-DNA binding, 90 min, at 25 µM
Out of some 3,000 compounds screened, about 1,800 (60%) were called active.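 How the source made its calls: active means activation at or above a set limit, or at least 3 SD above the negative control mean; inactive means the rest.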 So high a share suggests a set chosen from earlier hits. Only a sample is shown.
// one of T = active, F = inactive, no free text

# example entries with known answers
COMPOUND | MEASUREMENT_TARGET | CATEGORY_LABEL
Cc1cc(C)c2nc(SCC(=O)N(C)C3CCS(=O)(=O)C3)cc(C)c2c1 (stereo not given) | Nuclear receptor subfamily 1 group D member 1 (Homo sapiens) | T
NC(N)=Nc1nc2ccc(Br)cc2c(=O)[nH]1 | Nuclear receptor subfamily 1 group D member 1 (Homo sapiens) | T
CCOc1ccc2nc(Cl)c(C3CC(c4ccccc4)=NN3C(=O)c3cccs3)cc2c1 (stereo not given) | Nuclear receptor subfamily 1 group D member 1 (Homo sapiens) | F
Cc1cc(NC(=O)CSc2nc3cc(Cl)ccc3c(=O)n2Cc2ccco2)no1 | Nuclear receptor subfamily 1 group D member 1 (Homo sapiens) | F

Kindly consider the entry below.
Given `Cc1cc(Br)cn2c(Cc3ccccc3C(F)(F)F)c(-c3ccc(Cl)cc3)nc12` , state the outcome it received in this test. F

* * *

Biological target: Nuclear receptor subfamily 1 group D member 1 (Homo sapiens)
Test: Rev-erbα–DNA interaction modulation, retest – biochemical, FITC-DNA, fluorescence polarization, single point, confirmation (AID 1259319);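 further: 0% = 35 nM protein with DMSO and 100% = 750 nM protein high control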
Details: Rev-erb alpha FITC-DNA binding, 90 min, at 25 µM, stronger effect = higher value
Out of some 3,000 compounds screened, about 1,800 (60%) were called active. The set was probably picked from earlier hits. The list is a sample of the results.
Each entry gets NO if its activation stays under 20%, and YES if its activation is 20% or above.

# bool: activation of `CCN(CC)c1ccc2cc(C(N)=O)/c(=N\NC(=O)c3ccncc3)oc2c1` >= 20% YES

And what about the compound `Cc1cccc(N(CC(=O)Nc2ccc(-c3nc4ccc(C)cc4s3)cc2)S(C)(=O)=O)c1` ? YES

And what about the compound `COc1ccc2[nH]c(C(=O)Nc3ccccc3Cl)cc2c1` ? YES

And what about the compound COc1cc(OC)c(N2CC(C(=O)Nc3cc(Cl)ccc3N3CCOCC3)CC2=O)cc1Cl (stereo not given) ? NO

And what about the compound `O=C(NCc1ccc(Cl)cc1)c1cc2c(nc3sccn32)s1` ? NO

* * *

Target: Nuclear receptor subfamily 1 group D member 1 (Homo sapiens)
Experiment: Rev-erbα–DNA interaction modulation, retest – biochemical, FITC-DNA, fluorescence polarization, single point, confirmation (AID 1259319);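 further: 0% = 35 nM protein with DMSO and 100% = 750 nM protein high control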
Conditions: Rev-erb alpha FITC-DNA binding, 90 min, at 25 µM, stronger effect = higher value
In all, about 3,000 compounds went through this assay and about 1,800 (60%) were called active. The set was probably picked from earlier hits. A selection follows.
REPORTED_METRIC: activation

Below are worked cases with known answers.
COMPOUND | activation
CCCc1nc(SCC(=O)Nc2ccc(S(=O)(=O)N(C)C)cc2)c2ccccc2n1 | 18.2% (active)
Cc1ccc(-n2nc3cc(C)c(NC(=O)c4cccnc4)cc3n2)cc1 | 0.139% (inactive)

Returns the measured activation for the input molecule. Input: `Cc1cc(C(C)(C)C)n2nc(C)c(-c3ccccc3)c2n1` 4.3% (inactive)

And what about the molecule `N#Cc1ccccc1Sc1ccccc1C(=O)OCC(=O)NC1CCCCC1` ? 35.9% (active)

And what about the molecule `O=c1cc(N2CCCCC2)c(-c2ccccc2)nn1Cc1cccc(F)c1` ? 8.56% (inactive)

And what about the molecule `Cc1cc(/C=C(/C#N)C(=O)Nc2ccc(Cl)cc2)c(C)n1-c1cccnc1` ? 53.9% (active)

And what about the molecule `C=CCn1c(=NC(=O)c2ccc(S(=O)(=O)N3CCCC3)cc2)sc2cc(NC(C)=O)ccc21` ? 34.3% (active)

And what about the molecule `COc1ccc(-c2nnc3ccc(SCc4ccccc4)nn23)cc1` ? 14.9% (active)

And what about the molecule `CCc1ccccc1NC(=O)c1cc(-c2ccc3c(c2)OCO3)on1` ? 10.4% (inactive)

And what about the molecule `COc1ccc(CNC(=O)c2nnn(CC(=O)Nc3cc(C)cc(C)c3)c2N)cc1` ? 21.9% (active)

* * *

Target: Nuclear receptor subfamily 1 group D member 1 (Homo sapiens)
Assay: Rev-erbα–DNA interaction modulation, retest – biochemical, FITC-DNA, fluorescence polarization, single point, confirmation (AID 1259319);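 further: 0% = 35 nM protein with DMSO and 100% = 750 nM protein high control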
Conditions: Rev-erb alpha FITC-DNA binding, 90 min, at 25 µM
Screen size: about 3,000 compounds; about 1,800 (60%) were called active.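 Rule for the calls: active = activation at or above a set limit, or at least 3 SD above the negative control mean; inactive = the rest.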 The set was probably picked from earlier hits. Not all results are given here.
// one of active, inactive, no free text

COMPOUND | CATEGORY_LABEL
COc1cc2c(cc1NC(=O)CN1CCN(S(=O)(=O)c3ccc(F)cc3)CC1)oc1ccccc12 | inactive
O=S(=O)(c1ccc(Br)cc1)c1nc(-c2ccccc2)oc1NCc1cccnc1 | inactive
CCOC(=O)c1ccc(NC(=S)N2CCN(c3ccccn3)CC2)cc1 | inactive
O=C(COC(=O)c1cccc(Br)c1)Nc1cccc2c1C(=O)c1ccccc1C2=O | active
CS(=O)(=O)c1ccc2nc(NC(=O)c3ccc(N4CCCC4=O)cc3)sc2c1 | active
O=C1Cc2ccccc2Sc2ccc(Cl)cc21 | active

Given CCC(C(=O)NC1CCCC1)N(C(=O)c1snc(C(N)=O)c1N)c1ccc2c(c1)OCCO2 (stereo not drawn) , state the outcome it received in this test. active

And what about the compound `COc1ccc(-c2nn(C)c(=O)c3ccccc23)cc1NC(=O)COc1ccccc1` ? active

And what about the compound `Cc1nonc1NC(=O)CSc1nc2ccccc2cc1C#N` ? active

And what about the compound `CN(C)c1ccc(/C=C2\NC(=S)N(Cc3ccccc3)C2=O)cc1` ? active

And what about the compound `COc1nc(-c2ccc(Cl)cc2)ccc1-c1noc(-c2cccs2)n1` ? active

And what about the compound `COc1ccc(-c2csc3ncnc(N4CCN(S(=O)(=O)c5ccccc5C#N)CC4)c23)cc1` ? inactive

And what about the compound O=C1CCCC2=C1C(c1ccccc1)n1c(s/c(=C/c3cccc(F)c3)c1=O)=N2 (stereo not drawn) ? active

And what about the compound `COc1ccc(C)cc1Nc1nc(C)nc2c1oc1ccccc12` ? active

And what about the compound `CCN1/C(=C\c2ccc3ccccc3[n+]2CC)Sc2cc(C)ccc21` ? active

And what about the compound `CCc1ccc2c(c1)cc(CN(C(=S)Nc1ccccc1Cl)C1CC1)c1nnnn12` ? inactive

And what about the compound `CCOC(=O)c1ccc(NC(=O)c2c(NCc3ccccc3)[nH]c(=O)[nH]c2=O)cc1` ? inactive

* * *

Molecular target: Nuclear receptor subfamily 1 group D member 1 (Homo sapiens)
Experiment: Rev-erbα–DNA interaction modulation, retest – biochemical, FITC-DNA, fluorescence polarization, single point, confirmation (AID 1259319);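 further: 0% = 35 nM protein with DMSO and 100% = 750 nM protein high control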
Conditions: Rev-erb alpha FITC-DNA binding, 90 min, at 25 µM, stronger effect = higher value
Hit rate of the full screen: of about 3,000 compounds, about 1,800 (60%) were called active. So high a share suggests a set chosen from earlier hits. Not all results are given here.
REPORTED_METRIC: activation (%)
Please reply with the bare figure in % and do not write the unit itself.

Below are worked cases with known answers.
COMPOUND | MEASUREMENT_TARGET | NUMBER
Cc1nc2nc(SCC(=O)Nc3cccc(F)c3)[nH]c2cc1Br | Nuclear receptor subfamily 1 group D member 1 (Homo sapiens) | 20
COc1ccc(-n2ncc3c(N4CCc5ccccc54)ncnc32)cc1 | Nuclear receptor subfamily 1 group D member 1 (Homo sapiens) | 40.6
COc1ccc(-n2nc3c(N4CCC(C(=O)NCc5ccccc5)CC4)nnc(C)c3c2C)cc1 | Nuclear receptor subfamily 1 group D member 1 (Homo sapiens) | 32.9
COc1ccc(-n2nc(C(=O)NCC(=O)Nc3cccc(C)n3)c3ccccc3c2=O)cc1 | Nuclear receptor subfamily 1 group D member 1 (Homo sapiens) | 10.2

Returns the measured activation for the input compound. Input: `COc1ccc(/C=C2\SC(=S)N(CCCC(=O)NC3CCCC3)C2=O)cc1OC` 31.3
